Listing of recorded Ratio by entry.
study-system: UniProt:P08183
Sequence (P08183 whole entry): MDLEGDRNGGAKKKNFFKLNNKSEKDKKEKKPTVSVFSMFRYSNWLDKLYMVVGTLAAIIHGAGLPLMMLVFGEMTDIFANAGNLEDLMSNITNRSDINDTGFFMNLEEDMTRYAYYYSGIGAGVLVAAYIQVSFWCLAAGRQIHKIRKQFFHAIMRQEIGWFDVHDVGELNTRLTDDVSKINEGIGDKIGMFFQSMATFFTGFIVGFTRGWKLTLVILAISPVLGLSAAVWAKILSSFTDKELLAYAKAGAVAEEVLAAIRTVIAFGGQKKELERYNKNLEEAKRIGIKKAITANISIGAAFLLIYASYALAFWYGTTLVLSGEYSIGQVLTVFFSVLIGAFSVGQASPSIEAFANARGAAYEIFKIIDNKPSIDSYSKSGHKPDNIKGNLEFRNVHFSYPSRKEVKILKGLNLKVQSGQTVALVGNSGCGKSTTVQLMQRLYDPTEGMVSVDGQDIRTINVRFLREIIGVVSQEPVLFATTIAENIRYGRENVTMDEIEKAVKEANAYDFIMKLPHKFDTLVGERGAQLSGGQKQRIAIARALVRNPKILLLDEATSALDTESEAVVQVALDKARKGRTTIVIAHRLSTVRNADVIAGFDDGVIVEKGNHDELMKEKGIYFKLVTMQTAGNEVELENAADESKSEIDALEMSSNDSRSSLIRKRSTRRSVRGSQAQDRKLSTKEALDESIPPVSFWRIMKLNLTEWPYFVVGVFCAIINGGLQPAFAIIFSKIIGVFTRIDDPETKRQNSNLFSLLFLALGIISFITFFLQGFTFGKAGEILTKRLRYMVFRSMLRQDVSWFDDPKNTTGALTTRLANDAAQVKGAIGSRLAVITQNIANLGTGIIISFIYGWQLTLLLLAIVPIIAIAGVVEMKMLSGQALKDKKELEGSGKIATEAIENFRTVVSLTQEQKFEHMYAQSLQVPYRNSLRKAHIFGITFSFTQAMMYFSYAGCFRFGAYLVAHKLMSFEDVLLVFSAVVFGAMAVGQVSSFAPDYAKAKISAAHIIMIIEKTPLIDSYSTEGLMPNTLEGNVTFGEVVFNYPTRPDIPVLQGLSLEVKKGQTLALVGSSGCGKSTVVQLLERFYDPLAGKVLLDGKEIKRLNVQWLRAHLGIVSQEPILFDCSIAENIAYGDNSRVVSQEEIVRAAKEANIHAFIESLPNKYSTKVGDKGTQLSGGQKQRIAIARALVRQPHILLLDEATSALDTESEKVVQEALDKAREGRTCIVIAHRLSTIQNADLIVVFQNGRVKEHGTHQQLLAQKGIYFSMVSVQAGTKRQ
assay-method-text: Inhibition of human MDR1 expressed in mouse L5178Y cells assessed as Rhodamine-123 accumulation measured as fluorescence activity at 80 uM after 20 mins by flow cytometry relative to control
Type: cell-based
Just the number.

CC(=O)O[C@@H]1[C@H]2[C@@H](OC(=O)CC(C)C)[C@@H](C)C[C@]2(OC(C)=O)C(=O)/C(C)=C/[C@@H]2[C@H](CC[C@]13CO3)C2(C)C 22.6
C/C1=C\[C@@H]2[C@H](CC[C@]3(CO3)[C@H](O)[C@H]3[C@@H](O)[C@@H](C)C[C@]3(O)C1=O)C2(C)C 14.8
CC(=O)O[C@@H]1[C@@H]2[C@@H](OC(C)=O)[C@]3(CC[C@H]4[C@@H](/C=C(\C)C(=O)[C@@]2(OC(C)=O)C[C@@H]1C)C4(C)C)CO3 35

Consider the additional compound presented here.
State the recorded Ratio for this entry: CCC(=O)O[C@@H]1[C@@H]2[C@@H](OC(C)=O)[C@]3(CC[C@H]4[C@@H](/C=C(\C)C(=O)[C@@]2(OC(C)=O)C[C@@H]1C)C4(C)C)CO3
58.6
